- Condition Description: in ethanol, 278.15 K

| Compound | solubility (mole fraction) |
| --- | --- |
| CCOc1nc2cccc(C(=O)OC(C)OC(=O)OC3CCCCC3)c2n1Cc1ccc(-c2ccccc2-c2nn[nH]n2)cc1 (stereo unspecified) | 0.00055 |

###

- Condition Description: in ethanol, 308.15 K
Value Type: solubility (mole fraction)

| Compound | Measured Result |
| --- | --- |
| CCOc1nc2cccc(C(=O)OC(C)OC(=O)OC3CCCCC3)c2n1Cc1ccc(-c2ccccc2-c2nn[nH]n2)cc1 (stereo unspecified) | 0.00203 |

###

- Condition Description: in isopropanol, 288.15 K
Value Type: solubility (mole fraction)

| Compound | Measured Result |
| --- | --- |
| CCOc1nc2cccc(C(=O)OC(C)OC(=O)OC3CCCCC3)c2n1Cc1ccc(-c2ccccc2-c2nn[nH]n2)cc1 (stereo unspecified) | 0.00052 |

###

- Condition Description: in acetonitrile, 288.15 K
Value Type: solubility (mole fraction)

| Molecule | Measured Result |
| --- | --- |
| CCOc1nc2cccc(C(=O)OC(C)OC(=O)OC3CCCCC3)c2n1Cc1ccc(-c2ccccc2-c2nn[nH]n2)cc1 (stereo unspecified) | 0.00044 |

###

- Condition Description: in n-propanol, 318.15 K

| Compound | solubility (mole fraction) |
| --- | --- |
| CCOc1nc2cccc(C(=O)OC(C)OC(=O)OC3CCCCC3)c2n1Cc1ccc(-c2ccccc2-c2nn[nH]n2)cc1 (stereo unspecified) | 0.00452 |

###

- Condition Description: in acetone, 283.15 K

| Compound | solubility (mole fraction) |
| --- | --- |
| CCOc1nc2cccc(C(=O)OC(C)OC(=O)OC3CCCCC3)c2n1Cc1ccc(-c2ccccc2-c2nn[nH]n2)cc1 (stereo unspecified) | 0.00467 |

###

- Condition Description: in 2-butanone, 308.15 K
Value Type: solubility (mole fraction)

| Compound | Measured Result |
| --- | --- |
| CCOc1nc2cccc(C(=O)OC(C)OC(=O)OC3CCCCC3)c2n1Cc1ccc(-c2ccccc2-c2nn[nH]n2)cc1 (stereo unspecified) | 0.0138 |

###

- Condition Description: in acetone, 318.15 K
Value Type: solubility (mole fraction)

| Compound | Measured Result |
| --- | --- |
| CCOc1nc2cccc(C(=O)OC(C)OC(=O)OC3CCCCC3)c2n1Cc1ccc(-c2ccccc2-c2nn[nH]n2)cc1 (stereo unspecified) | 0.0155 |

###

- Condition Description: in ethanol, 283.15 K

| Compound | solubility (mole fraction) |
| --- | --- |
| CCOc1nc2cccc(C(=O)OC(C)OC(=O)OC3CCCCC3)c2n1Cc1ccc(-c2ccccc2-c2nn[nH]n2)cc1 (stereo unspecified) | 0.00066 |

###

- Condition Description: in 2-butanone, 328.15 K

| Compound | solubility (mole fraction) |
| --- | --- |
| CCOc1nc2cccc(C(=O)OC(C)OC(=O)OC3CCCCC3)c2n1Cc1ccc(-c2ccccc2-c2nn[nH]n2)cc1 (stereo unspecified) | 0.0264 |

###

- Condition Description: in n-propanol, 333.15 K
Value Type: solubility (mole fraction)

| Compound | Value Type | Measured Result |
| --- | --- | --- |
| CCOc1nc2cccc(C(=O)OC(C)OC(=O)OC3CCCCC3)c2n1Cc1ccc(-c2ccccc2-c2nn[nH]n2)cc1 (stereo unspecified) | solubility (mole fraction) | 0.00977 |

###

- Condition Description: in acetone, 278.15 K

| Compound | solubility (mole fraction) |
| --- | --- |
| CCOc1nc2cccc(C(=O)OC(C)OC(=O)OC3CCCCC3)c2n1Cc1ccc(-c2ccccc2-c2nn[nH]n2)cc1 (stereo unspecified) | 0.00383 |

###

- Condition Description: in ethanol, 328.15 K

| Compound | solubility (mole fraction) |
| --- | --- |
| CCOc1nc2cccc(C(=O)OC(C)OC(=O)OC3CCCCC3)c2n1Cc1ccc(-c2ccccc2-c2nn[nH]n2)cc1 (stereo unspecified) | 0.00573 |

###

- Condition Description: in n-propanol, 323.15 K

| Compound | solubility (mole fraction) |
| --- | --- |
| CCOc1nc2cccc(C(=O)OC(C)OC(=O)OC3CCCCC3)c2n1Cc1ccc(-c2ccccc2-c2nn[nH]n2)cc1 (stereo unspecified) | 0.0059 |

###

- Condition Description: in acetonitrile, 313.15 K

| Compound | solubility (mole fraction) |
| --- | --- |
| CCOc1nc2cccc(C(=O)OC(C)OC(=O)OC3CCCCC3)c2n1Cc1ccc(-c2ccccc2-c2nn[nH]n2)cc1 (stereo unspecified) | 0.00159 |

###

- Condition Description: in acetone, 293.15 K

| Compound | solubility (mole fraction) |
| --- | --- |
| CCOc1nc2cccc(C(=O)OC(C)OC(=O)OC3CCCCC3)c2n1Cc1ccc(-c2ccccc2-c2nn[nH]n2)cc1 (stereo unspecified) | 0.00673 |

###

- Condition Description: in acetone, 303.15 K

| Molecule | solubility (mole fraction) |
| --- | --- |
| CCOc1nc2cccc(C(=O)OC(C)OC(=O)OC3CCCCC3)c2n1Cc1ccc(-c2ccccc2-c2nn[nH]n2)cc1 (stereo unspecified) | 0.00946 |

###

- Condition Description: in n-propanol, 283.15 K

| Molecule | solubility (mole fraction) |
| --- | --- |
| CCOc1nc2cccc(C(=O)OC(C)OC(=O)OC3CCCCC3)c2n1Cc1ccc(-c2ccccc2-c2nn[nH]n2)cc1 (stereo unspecified) | 0.00079 |

###

- Condition Description: in ethanol, 313.15 K

| Compound | solubility (mole fraction) |
| --- | --- |
| CCOc1nc2cccc(C(=O)OC(C)OC(=O)OC3CCCCC3)c2n1Cc1ccc(-c2ccccc2-c2nn[nH]n2)cc1 (stereo unspecified) | 0.00271 |

###

- Condition Description: in ethanol, 298.15 K
Value Type: solubility (mole fraction)

| Compound | Measured Result |
| --- | --- |
| CCOc1nc2cccc(C(=O)OC(C)OC(=O)OC3CCCCC3)c2n1Cc1ccc(-c2ccccc2-c2nn[nH]n2)cc1 (stereo unspecified) | 0.0013 |

###

- Condition Description: in isopropanol, 313.15 K

| Compound | solubility (mole fraction) |
| --- | --- |
| CCOc1nc2cccc(C(=O)OC(C)OC(=O)OC3CCCCC3)c2n1Cc1ccc(-c2ccccc2-c2nn[nH]n2)cc1 (stereo unspecified) | 0.00221 |

###

- Condition Description: in isopropanol, 283.15 K

| Compound | solubility (mole fraction) |
| --- | --- |
| CCOc1nc2cccc(C(=O)OC(C)OC(=O)OC3CCCCC3)c2n1Cc1ccc(-c2ccccc2-c2nn[nH]n2)cc1 (stereo unspecified) | 0.00037 |

###

- Condition Description: in acetonitrile, 308.15 K
Value Type: solubility (mole fraction)

| Compound | Measured Result |
| --- | --- |
| CCOc1nc2cccc(C(=O)OC(C)OC(=O)OC3CCCCC3)c2n1Cc1ccc(-c2ccccc2-c2nn[nH]n2)cc1 (stereo unspecified) | 0.00127 |

###

- Condition Description: in n-propanol, 313.15 K

| Compound | solubility (mole fraction) |
| --- | --- |
| CCOc1nc2cccc(C(=O)OC(C)OC(=O)OC3CCCCC3)c2n1Cc1ccc(-c2ccccc2-c2nn[nH]n2)cc1 (stereo unspecified) | 0.00373 |

###

- Condition Description: in n-propanol, 303.15 K

| Compound | solubility (mole fraction) |
| --- | --- |
| CCOc1nc2cccc(C(=O)OC(C)OC(=O)OC3CCCCC3)c2n1Cc1ccc(-c2ccccc2-c2nn[nH]n2)cc1 (stereo unspecified) | 0.00208 |

###

- Condition Description: in acetonitrile, 278.15 K

| Compound | solubility (mole fraction) |
| --- | --- |
| CCOc1nc2cccc(C(=O)OC(C)OC(=O)OC3CCCCC3)c2n1Cc1ccc(-c2ccccc2-c2nn[nH]n2)cc1 (stereo unspecified) | 0.00026 |

###

- Condition Description: in 2-butanone, 323.15 K

| Compound | solubility (mole fraction) |
| --- | --- |
| CCOc1nc2cccc(C(=O)OC(C)OC(=O)OC3CCCCC3)c2n1Cc1ccc(-c2ccccc2-c2nn[nH]n2)cc1 (stereo unspecified) | 0.0224 |

###

- Condition Description: in isopropanol, 298.15 K

| Molecule | solubility (mole fraction) |
| --- | --- |
| CCOc1nc2cccc(C(=O)OC(C)OC(=O)OC3CCCCC3)c2n1Cc1ccc(-c2ccccc2-c2nn[nH]n2)cc1 (stereo unspecified) | 0.00093 |

###

- Condition Description: in acetonitrile, 328.15 K
Value Type: solubility (mole fraction)

| Molecule | Measured Result |
| --- | --- |
| CCOc1nc2cccc(C(=O)OC(C)OC(=O)OC3CCCCC3)c2n1Cc1ccc(-c2ccccc2-c2nn[nH]n2)cc1 (stereo unspecified) | 0.00343 |
